Entries and their measured IC50 follow.
tested on: anti-PBZ mAb; assay: TRFMs-LFIA competitive lateral flow immunoassay with anti-PBZ mAb immunoprobe; format: binding, mouse; settings: TRFMs-LFIA, coating antigen PBZ-2-BSA, optimal conditions

Recorded IC50, per entry:
CC(C)(C)C(O)(CCc1ccc(Cl)cc1)Cn1cncn1 (centres unmarked) [Tebuconazole] = >10 µg/mL
CC(C)(C)C(O)C(Oc1ccc(Cl)cc1)n1cncn1 (centres unmarked) [Triadimenol] = 0.92421 µg/mL
CCCCC(O)(Cn1cncn1)c1ccc(Cl)cc1Cl (centres unmarked) [Hexaconazole] = >10 µg/mL
CC(C)(C)C(=O)C(Oc1ccc(Cl)cc1)n1cncn1 (centres unmarked) [Triadimefon] = 0.44371 µg/mL

Attention now turns to another entry.
Give reported IC50 for CC(C)(C)C(O)/C(=C\c1ccc(Cl)cc1)n1cncn1 (centres unmarked) [Uniconazole] (anti-PBZ mAb)
3.81516 µg/mL
